# Tested on: LoVo/Dx cells
# Assay Procedure: MTT viability assay, doxorubicin-resistant LoVo/Dx
# Format: cell-based, human
# Assay Context: CC50 CCD 841 CoTr / CC50 LoVo/Dx
Readout Label: SI, LoVo/Dx
Give only the figure.

Ask: Item under review: Cc1cc(C)c(C(=O)NCc2nn(CN3CCN(c4cccc(Cl)c4)CC3)c(=S)n2-c2ccccc2)c(S)n1 [Compound 5] . Reported SI, LoVo/Dx?
Reply: 1.20

Ask: Item under review: Cc1cc(C)c(C(=O)NCc2nn(CN3CCN(c4cccc(Cl)c4)CC3)c(=S)n2C(C)C)c(S)n1 [Compound 12] . Reported SI, LoVo/Dx?
Reply: 0.70

Ask: Item under review: Cc1cc(C)c(C(=O)NCc2nn(CN3CCN(c4ccccc4)CC3)c(=S)n2-c2ccccc2)c(S)n1 [Compound 4] . Reported SI, LoVo/Dx?
Reply: 1.17
